Test system: MCF7 breast
Assay: NCI tumour cell line growth inhibition, 48 h; in the data active means GI50 below about 0.43 µM; inactive means the rest
Classes used: active, inactive

COMPOUND: CNC1=CC(=O)C2=C(C1=O)C1C3=C(C(=O)C(Br)=C(OC)C3=O)C2c2ccccc21 (configuration not stated)
DISCRETE LABEL: inactive
--
COMPOUND: CCCC(=O)O[C@]1(C)CC[C@@H]2[C@H]3[C@@H]1[C@@H]1C/C(C)=C\CC[C@](C)(OC(=O)[C@@H]2C)[C@H]3O1
DISCRETE LABEL: inactive
--
COMPOUND: COc1cccc2c1C(=O)c1c(O)c3c(c(O)c1C2=O)C[C@@](O)(C(C)=O)C[C@@H]3OC1CC(O)C(O)C(C)O1 (some centres not stated)
DISCRETE LABEL: active
--
COMPOUND: CCOc1ccc(NC(=O)c2cc3ccccc3cc2O)cc1
DISCRETE LABEL: inactive
--
COMPOUND: CC(=O)[O][Hg][CH2]C1(C)COC(C)([CH2][Hg][O]C(C)=O)CO1 (configuration not stated)
DISCRETE LABEL: inactive
--
COMPOUND: OCc1ncc(-c2ccccc2)s1
DISCRETE LABEL: inactive
--
COMPOUND: Cn1ccc2c3c(=O)cc[nH]c3ccc21
DISCRETE LABEL: inactive

###

Tested on: CAKI-1 renal
Assay: NCI tumour cell line growth inhibition, 48 h
REPORTED METRIC: GI50

COMPOUND: CCCCCCCCc1ccc(CCC(N)(CO)CO)cc1
STUDY TARGET: CAKI-1 renal
RESULT: 2.64 µM
//
COMPOUND: CC(=O)Oc1ccccc1C(=O)NCCC[Se]C#N
STUDY TARGET: CAKI-1 renal
RESULT: 1.97 µM
//
COMPOUND: C=C1[C@@H](O)C[C@H]2C(C)(C)C[C@H](Cl)C[C@]2(C)[C@H]1C[C@H](O)[C@H]1CC(=O)NC1=O
STUDY TARGET: CAKI-1 renal
RESULT: 0.0418 µM
//
COMPOUND: COc1ccccc1Nc1nc2ccccc2c2occc12
STUDY TARGET: CAKI-1 renal
RESULT: 18 µM
//
COMPOUND: C/C=C/C=C/CCCCCCCCCCCCC[C@]1(OC)C=CC(CC(=O)OC)OO1 (stereo not given in full)
STUDY TARGET: CAKI-1 renal
RESULT: 17.1 µM
//
COMPOUND: CC(=O)OC1CC2(O)C(CCC3(C)C(c4ccc(=O)oc4)CCC32O)C2(C)CCC(OC3OC(CO)C(O)C(O)C3O)C=C12 (stereo not given)
STUDY TARGET: CAKI-1 renal
RESULT: 0.0306 µM
//
COMPOUND: CCCC(=O)O[C@]1(C)CC[C@@H]2[C@H]3[C@@H]1[C@@H]1C/C(C)=C\CC[C@](C)(OC(=O)[C@@H]2C)[C@H]3O1
STUDY TARGET: CAKI-1 renal
RESULT: 31.7 µM
//
COMPOUND: C[n+]1cc2cc3c(cc2c2ccccc21)OCO3
STUDY TARGET: CAKI-1 renal
RESULT: 46.4 µM
//
COMPOUND: COc1ccc(C2SCC(=O)N2NC(=O)C(O)c2ccccc2)cc1 (stereo not given)
STUDY TARGET: CAKI-1 renal
RESULT: > 100 µM
//
COMPOUND: Cc1ccc(S(=O)(=O)N[C@@H](Cc2ccccc2)C(=O)CCl)cc1
STUDY TARGET: CAKI-1 renal
RESULT: 16.7 µM

###

Known TGI of a selection of compounds
System: SR leukemia
Assay: NCI tumour cell line growth inhibition, 48 h

COMPOUND: Cc1[nH]c(=O)nc(N/N=C/c2ccc(Cl)cc2)c1C(=O)Nc1ccc(Cl)cc1
TGI: > 100 µM

COMPOUND: Cc1ccc(C2=Nn3c(nc4sc5c(c4c3=O)CCCC5)SC2)cc1
TGI: > 100 µM

COMPOUND: C[CH2][Ge]([CH2]C)([CH2]C)[O]C(=O)C([O][Ge]([CH2]C)([CH2]C)[CH2]C)c1ccccc1 (stereo unspecified)
TGI: 75.4 µM

COMPOUND: COc1cc2c(c(OC)c1OC)C(=O)c1c-2n(CCCN=[N+]=[N-])c(=O)c2cc([N+](=O)[O-])ccc12
TGI: 41.9 µM

COMPOUND: C=C1C(=O)O[C@H]2[C@H]1CC/C(COC(=O)C(=O)c1c[nH]c3ccc(Cl)cc13)=C\CC[C@@]1(C)O[C@@H]21
TGI: 12.2 µM

COMPOUND: OCC#CCCCCOCC#Cc1ccccc1C#CCOCCCCC#CCO
TGI: > 100 µM

COMPOUND: CC(C)N(C(=O)C12C3(C(=O)C(C)(C)C)C4C5(C#N)C3C1(C(=O)C(C)(C)C)C5C42C(=O)C(C)(C)C)C(C)C (stereo unspecified)
TGI: > 100 µM

COMPOUND: COc1cc(/C=C2\C(=O)N(c3ccc(NC(C)=O)cc3)C(c3ccccc3)S2(=O)=O)cc(OC)c1OC (stereo unspecified)
TGI: > 100 µM

COMPOUND: C/C(=C1/N=C(c2ccccc2)OC1=O)c1ccccc1
TGI: > 100 µM

COMPOUND: C[N+]1(c2ccccc2)C=C(c2ccccc2)SC1=S (stereo unspecified)
TGI: > 100 µM

COMPOUND: CCOC(=O)CON=c1c2ccccc2ccc2ccccc12
TGI: > 100 µM

COMPOUND: N=C1N=C(N)S/C1=C\c1ccc2ncccc2c1
TGI: > 25 µM

COMPOUND: O=C(Nc1nc(-c2ccccc2)cs1)c1cc(O)c(O)c(O)c1
TGI: 19.9 µM

COMPOUND: COc1cc(/C=C2\CCCC3=C2N=C2SC(C)=CN2C3c2cc(OC)c(OC)c(OC)c2)cc(OC)c1OC (stereo unspecified)
TGI: 2.01 µM

COMPOUND: O=C(c1ccc(Cl)c(Cl)c1)N(C(=O)N1CCN(c2ccccc2)CC1)S(=O)(=O)c1ccccc1
TGI: > 100 µM

COMPOUND: CC(=O)OC1CC2C(C)(C)OC(=O)CC(OC(C)=O)[C@]2(C)C2CCC3(C)C(=CCC3c3ccoc3)[C@]12C (stereo partly specified)
TGI: 50.8 µM

COMPOUND: COc1cc(OC)c2nc(C)c3c(c2c1)OCC3
TGI: > 100 µM

COMPOUND: COC(=O)C1=C(C(=O)OC)C(OO)(c2ccccc2)OC1=O (stereo unspecified)
TGI: > 100 µM

COMPOUND: CCCC(=O)O[C@]1(C)CC[C@@H]2[C@H]3[C@@H]1[C@@H]1C/C(C)=C\CC[C@](C)(OC(=O)[C@@H]2C)[C@H]3O1
TGI: 26.9 µM

COMPOUND: CC(C)C[C@H]1C(=O)N2CCC[C@H]2[C@]2(O)O[C@](NC(=O)[C@@H]3C=C4c5cccc6[nH]c(Br)c(c56)C[C@H]4N(C)C3)(C(C)C)C(=O)N12
TGI: > 100 µM

COMPOUND: C=C(C[C@@H](O)[C@H](C)NC(=O)OCc1ccccc1)C(=O)OC(C)(C)C
TGI: > 100 µM

COMPOUND: COC(=O)/C=C/c1ccc2c(c1)[C@H](C(=O)OC)[C@@H](c1ccc(O)cc1)O2
TGI: 45.8 µM

COMPOUND: Cc1cc(S(=O)(=O)Nc2nc3ccccc3[nH]2)c(SCc2ccccc2)cc1Cl
TGI: > 100 µM

COMPOUND: Cc1ccc(S(=O)(=O)OI(O)CC(F)(F)F)cc1
TGI: > 100 µM

COMPOUND: CCCCCCCCc1ccc(CCC(N)(CO)CO)cc1
TGI: 4.28 µM

COMPOUND: CCOC(=O)C1=C(C)N(NC(=O)OC)C2(N)N(NC(=O)OC)C(C)=C(C(=O)OCC)C12C#N (stereo unspecified)
TGI: > 100 µM

###

Known TGI of a selection of compounds
System: HOP-62 NSCLC
Assay: NCI tumour cell line growth inhibition, 48 h
Where a SMILES comes first, the peptide text is derived from it. The star is where a group is joined. Boc = CC(C)(C)OC(=O)*; Bn = c1ccc(C*)cc1

COMPOUND: O=[N+]([O-])c1cc(Cl)ccc1S(=O)(=O)c1ccc(Cl)cc1[N+](=O)[O-]
TGI: 35.9 µM
--
COMPOUND: C[N+]1(c2ccccc2)C=C(c2ccccc2)SC1=S (stereo not drawn)
TGI: > 100 µM
--
COMPOUND: COC(=O)C(CC(C)C)NC(=O)CNC(=O)C(Cc1ccc(OCc2ccccc2)cc1)NC(=O)C(COCc1ccccc1)NC(=O)OC(C)(C)C (stereo not drawn) (Boc-S(Bn)Y(Bn)GL-OMe; configuration not given here)
TGI: > 100 µM

###

Test system: HCT-15 colon
Experiment: NCI tumour cell line growth inhibition, 48 h

COMPOUND: Cc1cccc2c(N=Nc3ccccc3[N+](=O)[O-])c(O)[nH]c12
TGI: 97.7 µM
//
COMPOUND: O=[N+]([O-])c1cc(Cl)ccc1S(=O)(=O)c1ccc(Cl)cc1[N+](=O)[O-]
TGI: 33 µM
//
COMPOUND: O=C(/C=C/c1ccc(O)cc1)c1cc(-c2cc(CCC(=O)c3ccc(O)cc3O)ccc2O)c(O)cc1O
TGI: > 50 µM
//
COMPOUND: COc1ccc(C(c2cc(OC)c(OC)c(OC)c2)N2C(=O)CCC2C(=O)O)cc1 (stereo not given)
TGI: > 100 µM
//
COMPOUND: CSC(=NC#N)S/C=C/C(=O)c1cccc2ccccc12
TGI: > 100 µM
//
COMPOUND: COC(=O)/C=C/C(=O)Nc1cc(Cl)c(Cl)cc1CC(=O)N(C)[C@H]1CCCC[C@@H]1N1CCCC1
TGI: 28 µM
//
COMPOUND: COc1ccc2oc(=O)c(-c3csc(-c4ccccc4)n3)cc2c1
TGI: > 100 µM
//
COMPOUND: COC(=O)/C=C1/OC(c2ccc(C)cc2C)=CC1=O
TGI: 29.3 µM
//
COMPOUND: CC[C@H]1C=CCC[C@@]2(C[C@@H]3CC[C@H]4[C@@H](C(=O)OCCCCCCCCCCCCCCCC(=O)N(CCCNC(C)=O)C[C@H](CCNC(C)=O)OC(C)=O)[C@@]5(CCC[C@@H](C)O5)NC(=[N+]34)N2)O1
TGI: 3.17 µM
//
COMPOUND: CN(C)CCC(/C=C/c1ccccc1)=N\Nc1ccc(Cl)cc1
TGI: 15.2 µM
//
COMPOUND: CCC1(CC)C(=O)NN(C(=O)c2ccc(Cl)cc2)C1=O
TGI: > 100 µM
//
COMPOUND: CC1NCCc2c1[nH]c1cc(O)ccc21 (stereo not given)
TGI: > 100 µM
//
COMPOUND: NCCn1cnc2nc(NC(=O)c3ccccc3)[nH]c(=O)c21
TGI: > 100 µM
//
COMPOUND: COc1ccc(C2SCC(=O)N2NC(=O)C(O)c2ccccc2)cc1 (stereo not given)
TGI: > 100 µM
//
COMPOUND: O=C(Nc1nc(-c2ccccc2)cs1)c1cc(O)c(O)c(O)c1
TGI: > 100 µM
//
COMPOUND: CCOc1ccc(NC(=O)c2cc3ccccc3cc2O)cc1
TGI: > 100 µM
//
COMPOUND: Cc1ncc([N+](=O)[O-])n1CCNC(=O)Cn1ccnc1[N+](=O)[O-]
TGI: > 100 µM
//
COMPOUND: O=C(NN1C(=O)C(Cl)C1c1cccc(Cl)c1)c1ccccc1O (stereo not given)
TGI: > 100 µM
//
COMPOUND: C=CC[C@@]12CCC(=O)C=C1CCCC2=O
TGI: > 100 µM
//
COMPOUND: Cc1ccc2nc(-c3ccc(-c4nc5ccc(C)cc5o4)c(O)c3)oc2c1
TGI: > 100 µM
//
COMPOUND: Cc1ccc(/C=C2\CCCCCC2=O)cc1
TGI: > 100 µM
//
COMPOUND: O=C(CSc1nc2ccc(I)cc2c(=O)n1Cc1ccccc1)NN1C(=O)CSC1c1ccccc1 (stereo not given)
TGI: 40.5 µM
//
COMPOUND: CCCCCCCCc1ccc(CCC(N)(CO)CO)cc1
TGI: 3.42 µM
//
COMPOUND: Oc1ccc2ccccc2c1NCn1nc(CCCCCCCCc2nn(CNc3c(O)ccc4ccccc34)c(=S)o2)oc1=S
TGI: > 100 µM
//
COMPOUND: CC(C)C[C@H]1C(=O)N2CCC[C@H]2[C@]2(O)O[C@](NC(=O)[C@@H]3C=C4c5cccc6[nH]c(Br)c(c56)C[C@H]4N(C)C3)(C(C)C)C(=O)N12
TGI: > 100 µM
//
COMPOUND: CNC(=O)OCc1nc(N=[N+]=[N-])n(C)c1COC(=O)NC
TGI: > 100 µM
//
COMPOUND: CC1(C)N([O-])[N+](=O)C1(Br)c1ccccc1 (stereo not given)
TGI: > 100 µM
//
COMPOUND: CC(=O)C(N=NC1CCC(S(=O)(=O)NB2N=CS2)CC1)C(=O)Nc1ccccc1C (stereo not given)
TGI: 22.3 µM
//
COMPOUND: COc1ccc(OC)c([N+](=O)[O-])c1-c1nc2sc(C)c(C)n2c1/C=N/N=C(N)N
TGI: > 100 µM
//
COMPOUND: C[CH2][Ge]([CH2]C)([CH2]C)[O]C(=O)C([O][Ge]([CH2]C)([CH2]C)[CH2]C)c1ccccc1 (stereo not given)
TGI: 30 µM
//
COMPOUND: COc1ccc2c(c1)C(=O)c1c-2n(CCCN=[N+]=[N-])c(=O)c2cc(N)ccc12
TGI: > 100 µM
//
COMPOUND: CCOC(=O)C(C)c1nc2cc(C(F)(F)F)ccc2[nH]c1=O (stereo not given)
TGI: > 100 µM
//
COMPOUND: C[N+]1(c2ccccc2)C=C(c2ccccc2)SC1=S (stereo not given)
TGI: > 100 µM
//
COMPOUND: O=C(/C=N/O)Nc1ccc(Cl)c(I)c1
TGI: 63.9 µM
//
COMPOUND: CCCCCCCC(=O)NS(=O)(=O)c1ccccc1
TGI: > 100 µM
